The following compounds are listed with their measured GI50 values.
system: T-47D breast; experiment: NCI tumour cell line growth inhibition, 48 h
ASSAY_METRIC: GI50

                                   compound  experimental_value
0      CCN(Cc1ccc(F)c(F)c1)c1ccc(CO)c(Cl)c1             97.7 nM
1  CCN(CC)S(=O)(=O)c1ccc(OC)c(Nc2ncc(-c3ccccc3)o2)c1          > 11000 nM
2  Nc1ccn(Cc2ccc(C34CC5CC(CC(C5)C3)C4)c(O)c2)c(=O)n1         > 100000 nM
3  COc1cc(C2c3cc4c(cc3[C@@H](Nc3ccc(C#N)cc3)C3COC(=O)[C@H]23)OCO4)cc(OC)c1O (stereo partly specified)              460 nM
4  CC(C)(C)C[C@H]1NC(C(=O)NCC[C@H](O)CO)[C@H](c2cccc(Cl)c2)[C@@]12C(=O)Nc1cc(Cl)c(F)cc12 (stereo partly specified)            16700 nM
5  C=C1C(=O)O[C@H]2[C@H]1CC/C(COC(=O)NCc1ccccc1OC)=C\CC[C@@]1(C)O[C@@H]21             2010 nM

* * *

test system: NCI-H226 lung; experiment: NCI tumour cell line growth inhibition, 48 h; in the data active means GI50 below about 0.43 µM; inactive means the rest
Outcomes: active, inactive

                                   compound   assay_system  label_value
0  CN1CCN(CCc2cccc(C(=O)c3cnn(-c4ccc(F)cc4)c3N)c2)CC1  NCI-H226 lung     inactive
1  Nc1nc(Cl)cc(OCC2(O)CC(COC(=O)c3ccccc3)C2)n1 (centres undefined)  NCI-H226 lung     inactive
2              Nc1cc2cccc[n+]2c2cc(Cl)ccc12  NCI-H226 lung     inactive
3  CCCCCn1c(=N)n(CC(O)COc2cccc(C)c2)c2ccccc21 (centres undefined)  NCI-H226 lung     inactive
4  CCN1C(=O)N(CC)C2C1NN=c1s/c(=C\c3cccnc3)c(=O)n12 (centres undefined)  NCI-H226 lung     inactive
5         COC(=O)/C=C/C=C(c1ccccc1)c1ccccc1  NCI-H226 lung     inactive
6  COC(=O)[C@@H](C)C[C@H](Cc1ccccc1)NC(=O)c1nc([C@@H](C[C@H](C(C)C)N(C)C(=O)[C@@H](NC(=O)[C@H]2CCCCN2C)C(C)C)OC(C)=O)sc1C  NCI-H226 lung       active
7  C=C1C(O)C2(O)OCC34C(CC5C(C)=CC(=O)C(O)C5(C)C23)OC(=O)C(OC(=O)C/C=C(\C)CCCCC)C14 (centres undefined)  NCI-H226 lung       active
8  COc1cccc(/C=C/C(=O)c2cccc(Nc3nc(Nc4ccccc4)nc(Nc4ccccc4)n3)c2)c1  NCI-H226 lung     inactive

* * *

The following compounds are listed with their measured TGI values.
test system: RXF 393 renal; assay: NCI tumour cell line growth inhibition, 48 h

COMPOUND	TGI
CC(C)(C)C[C@H]1NC(C(=O)NCC[C@H](O)CO)[C@H](c2cccc(Cl)c2)[C@@]12C(=O)Nc1cc(Cl)c(F)cc12 (stereo partly drawn)	27.1 µM
CCOC(=O)c1[nH]cc(C)c1-c1ccn(-c2ccccc2)c1	> 100 µM
COc1cc(C2c3cc4c(cc3OC(NN=C(C)C)C2C)OCO4)cc(OC)c1O (stereo not drawn)	> 100 µM
COc1cccc(NC(=O)CC(=O)N2N=C(N(CCC#N)c3ccc(Cl)cc3)CC2c2ccccc2)c1 (stereo not drawn)	> 100 µM
Cc1cc(N(CCC#N)S(=O)(=O)c2ccccc2)ccc1/C=C1N=C(/C=C/c2ccccc2)OC\1=O	> 100 µM
O=C1CCSSCCC(=O)NCCN1	> 100 µM
CN(C)S(=O)(=O)c1ccc(NC(=O)COC(=O)c2ccc(S(=O)(=O)N3CCCCC3)cc2)cc1	> 100 µM
CN(C)c1ccc(-c2c(C#N)c(S)n(NS(=O)(=O)c3ccccc3)c(=O)c2C#N)cc1	> 100 µM
O=C(Cn1ccc(=O)[nH]c1=O)Nc1ccc(C(=O)O)c(O)c1	> 100 µM
O=C1c2ccccc2-c2c1c1ccccc1c(=O)n2CCCNCCCNCCCn1c2c(c3ccccc3c1=O)C(=O)c1ccccc1-2	1.11 µM
COC(=O)[C@]12CC[C@@H](C)[C@H](C)[C@@H]1C1=CC[C@@H]3[C@@]4(C)C[C@@H](OC(C)=O)[C@H](O)[C@@](C)(COC(C)=O)[C@@H]4[C@H](O)C[C@@]3(C)[C@]1(C)CC2	5.05 µM
C=CCC1([C@H](C)[C@@H](OC(C)=O)c2cc(OC)c(OC)c(OC)c2)C[C@@H](OC)CCC1=O (stereo partly drawn)	26.6 µM
CNC(=O)n1ccc2cc(Oc3ccnc(NC(=O)c4ccc(C5CCN(CCO)CC5)cc4)c3)c(OCCOC)cc21	3.09 µM
Nc1nn2c(C(Br)Br)cc(C(Br)Br)nc2c1[N+](=O)[O-]	4.35 µM
O=c1cc(/C=C/c2ccc(O)c(O)c2)oc(/C=C/c2ccc(O)c(O)c2)c1	9.12 µM
COc1ccc2c(c1)C(O)(C(F)(F)F)c1cc(C(=O)C(F)(F)F)c3ccccc3c1N2 (stereo not drawn)	23.8 µM
CCCCn1c2c(n(CCCC)c1=S)-c1c(n(CCCC)c(=S)n1CCCC)S[Se][Se]S2	25.4 µM
O=[N+]([O-])C(=C(N1CCCCC1)N1CCCCC1)/C(Cl)=C(\Cl)Br	62.9 µM

* * *

tested on: MOLT-4 leukemia; assay: NCI tumour cell line growth inhibition, 48 h
ASSAY_METRIC: TGI

>>> df
                                   molecule     assay_system  assay_metric  experimental_value
0  COc1ccc(C(=O)/C=C/c2ccc(/C=C/c3cc(OC)c(OC)c(OC)c3)cc2)cc1  MOLT-4 leukemia           TGI            > 100 µM
1     CCC[C@H]1C(=O)N=C(N)N1C(=O)OCc1ccccc1  MOLT-4 leukemia           TGI            > 100 µM
2  CCN(CC)CCNc1ccc2nnn3c4ccc(OC)cc4c(=O)c1c23  MOLT-4 leukemia           TGI             13.1 µM
3  CN(C)C(CN)CC1=C(CC(CN)N(C)C)CCC1 (stereo not given)  MOLT-4 leukemia           TGI            > 100 µM
4  Nc1c(C(=O)Nc2cccc([N+](=O)[O-])c2)sc2nc3c(cc12)C(O)CCC3 (stereo not given)  MOLT-4 leukemia           TGI            > 100 µM
5  CN(C)c1ccc(-c2c(C#N)c(S)n(NS(=O)(=O)c3ccccc3)c(=O)c2C#N)cc1  MOLT-4 leukemia           TGI            > 100 µM
6  CCCc1[nH]nc(CCC(=O)N(Cc2ccccc2)Cc2ccccc2)c1CC  MOLT-4 leukemia           TGI            > 100 µM
7  CN(CCCN)CCCNc1nc2ccccc2c2[nH]c3ccccc3c12  MOLT-4 leukemia           TGI             1.24 µM
8      CCOC(=O)C1=C(C(C)=O)CSC(c2ccccc2)=N1  MOLT-4 leukemia           TGI            > 100 µM
9  COC(=O)c1c(C)cccc1/C=C1/Cc2c(C)cccc2C1=O  MOLT-4 leukemia           TGI            > 100 µM

* * *

system: 786-0 renal; assay: NCI tumour cell line growth inhibition, 48 h

INPUT_SMILES	GI50
Cc1c(C(=O)/C=C/c2csc3ccccc23)[n+](=O)c2ccccc2n1[O-]	1640 nM
COC(=O)[C@]12CC[C@@H](C)[C@H](C)[C@@H]1C1=CC[C@@H]3[C@@]4(C)C[C@@H](OC(C)=O)[C@H](O)[C@@](C)(COC(C)=O)[C@@H]4[C@H](O)C[C@@]3(C)[C@]1(C)CC2	1890 nM
O=C([O-])c1ccccc1Nc1ccccn1.O=C([O-])c1ccccc1Nc1ccccn1.[Ni+2]	> 100000 nM
Cc1ccncc1.[O]=[Ge].[O]=[Ge].[O]=[Ge].[O]=[Ge].[O]=[Ge].[O]=[Ge][OH].[O]=[Ge][OH]	> 100000 nM

* * *

test system: KM12 colon; assay: NCI tumour cell line growth inhibition, 48 h
ASSAY_METRIC: TGI

COMPOUND	EXPERIMENTAL_VALUE
O=C(O)c1ccc([Se][Se]c2ccc(C(=O)O)cc2)cc1	68.4 µM
C=C1[C@@H](O)C[C@@]23CC[C@@H]4[C@@]5(C)CC[C@@H](OC(C)=O)C(C)(C)[C@@H]5C[C@@H](OC5OC(COC(C)=O)C(O)C(O)C5O)[C@@]4(C)C2=CC[C@H]3[C@H]1C (stereo partly drawn)	8.16 µM
COC(=O)c1csnn1	> 100 µM
Cc1cc(N(CCC#N)S(=O)(=O)c2ccccc2)ccc1/C=C1N=C(/C=C/c2ccccc2)OC\1=O	> 100 µM
CC1=NOC(=O)/C1=C/c1ccccc1O	> 100 µM
C/C(=C\c1ccccc1)C(=O)CCN1CCOCC1	31.2 µM
COC(=O)c1ccccc1/C=C1/Cc2ccccc2C1=O	96.5 µM
Cc1nn(C(=O)Cc2ccccc2)c2c1C(c1ccccc1O)SC(N)=N2 (stereo not drawn)	> 100 µM
O=C(c1ccccc1)C1N=NCC1c1ccc([N+](=O)[O-])cc1 (stereo not drawn)	> 100 µM
CCN(Cc1ccc(F)c(F)c1)c1ccc(CO)c(Cl)c1	28.4 µM
CC/C=C\C=C/C(=O)N/C=C/CC1Cc2cccc(O)c2C(=O)O1 (stereo not drawn)	72.1 µM
COc1cccc(-c2cc(=O)c3c(C)cc(C)nc3[nH]2)c1	16.6 µM
O=C(CP(=O)(O)O)c1cccs1	> 100 µM
COC(=O)CCC1CCc2c(OC)ccc(O)c2C1=O (stereo not drawn)	> 100 µM
C=CCc1c2c(c(OC)c3ccoc13)C(=O)/C(=C/c1ccccc1OC)O2	22.3 µM
O=C1NCCCc2nonc21	> 100 µM
CN(C)c1ccc(-c2c(C#N)c(S)n(NS(=O)(=O)c3ccccc3)c(=O)c2C#N)cc1	47.7 µM
Cc1c(C(=O)/C=C/c2csc3ccccc23)[n+](=O)c2ccccc2n1[O-]	2.9 µM
O=C1CCSSCCC(=O)NCCN1	> 100 µM
CC(=O)N/N=C1/NN(C(C)=O)C2(S1)C(=O)Nc1ccc(Br)cc12 (stereo not drawn)	> 100 µM
CC(CC(C#N)(c1ccccc1)c1ccccc1)N1CCCCC1 (stereo not drawn)	49.2 µM
COc1ccccc1NC(=O)CC(=O)N1N=C(C)C(N=Nc2ccc(S(N)(=O)=O)cc2)C1=O (stereo not drawn)	> 100 µM
CCC(C(=O)O)c1ccc(OCc2ccccc2)cc1 (stereo not drawn)	> 100 µM
COc1cc(/C=C/C(=O)O)ccc1C(=O)O/C=C/c1ccccc1	> 100 µM
Nc1cc2cccc[n+]2c2cc(Cl)ccc12	53.2 µM
CCCN=Cc1cc(Cc2ccc(O)c(C=NCCC)c2)ccc1O	22 µM
O=C(Cn1ccc(=O)[nH]c1=O)Nc1ccc(C(=O)O)c(O)c1	> 100 µM
O=CNc1c(Cl)cc2c(c1Cl)Cc1cc([N+](=O)[O-])ccc1-2	11.9 µM
CC(=O)NNc1nc(C)c(C(=O)NNC(=O)C(=O)Nc2ccccc2C#N)s1	> 100 µM
CCN(CC)c1ccc(C(=C2C=CC(=[N+](CC)Cc3cccc(S(=O)(=O)O)c3)C=C2)c2ccc(N(CC)Cc3cccc(S(=O)(=O)O)c3)cc2)cc1	28.9 µM
O=C1OC(=O)C(c2c[nH]c3ccccc23)=C1c1c[nH]c2ccccc12	> 25 µM
CCCCCCCCCc1cc(=O)c2ccc(OCc3ccccc3)cc2o1	> 100 µM
CCCCCn1c(=N)n(CC(O)COc2cccc(C)c2)c2ccccc21 (stereo not drawn)	15.1 µM
COCCN1C2=CCCCC2=Nc2c1nc(N)[nH]c2=O	> 100 µM
CN(C(=O)C12C3C4C5C3C1(C(=O)O)C5C42)C(C)(C)C (stereo not drawn)	> 100 µM
Cc1ccc(-c2c(N)[n+]([O-])c3ccccc3[n+]2[O-])cc1	26.7 µM
O=C(Nc1cccc2cnccc12)c1cc2c(cc1Cl)Sc1nccn1S2(=O)=O	21.9 µM
CNC(=O)c1cncc(/C=C/c2ccccc2C)c1	> 25 µM
COC(=O)[C@@H](C)C[C@H](Cc1ccccc1)NC(=O)c1nc([C@@H](C[C@H](C(C)C)N(C)C(=O)[C@@H](NC(=O)[C@H]2CCCCN2C)C(C)C)OC(C)=O)sc1C	> 16.7 µM
COc1cc(C2c3cc4c(cc3OC(NN=C(C)C)C2C)OCO4)cc(OC)c1O (stereo not drawn)	> 100 µM
CCCCCCCCCCCCOC(=S)NCCCC	41.9 µM
COc1cc(/C=C2\C(=O)N(C(=O)Cc3ccccc3)N=C2C)ccc1O	> 100 µM
COc1ccc2c(c1)O/C(=C\c1cccc(OCC(=O)Nc3nc4c(s3)CCCC4)c1)C2=O	> 100 µM
